This listing pairs compounds with measured Bliss interaction score.
system: S. aureus Newman; assay: Bliss interaction score (quartile over a dose matrix) (fitness difference); higher = more antagonism (negative = synergy); conditions: main component drawn;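 further: first quartile when negative (synergy) and third quartile when positive (antagonism)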
readout_label: Bliss interaction score

compound: CC1=C(C(=O)O)N2C(=O)[C@@H](NC(=O)[C@H](N)c3ccccc3)[C@H]2SC1 [Cephalexin] + CC(C1CCC(C(O1)OC2C(CC(C(C2O)OC3C(C(C(CO3)(C)O)NC)O)N)N)N)NC [Gentamicin]
tgt: S. aureus Newman
quantitative_result: -0.018
--
compound: CNC(C)C1CCC(N)C(OC2C(N)CC(N)C(OC3OCC(C)(O)C(NC)C3O)C2O)O1 (stereo not given) [Gentamicin] + CCC[C@@H]1C[C@@H](C(=O)N[C@@H]([C@H]2O[C@H](SC)[C@H](O)[C@@H](O)[C@H]2O)[C@@H](C)O)N(C)C1 [Lincomycin]
tgt: S. aureus Newman
quantitative_result: 0.0735
--
compound: CNC(C)C1CCC(N)C(OC2C(N)CC(N)C(OC3OCC(C)(O)C(NC)C3O)C2O)O1 (stereo not given) [Gentamicin] + CC(=O)NC[C@H]1CN(c2ccc(N3CCOCC3)c(F)c2)C(=O)O1 [Linezolid]
tgt: S. aureus Newman
quantitative_result: 0.0901
--
compound: CNC(C)C1CCC(N)C(OC2C(N)CC(N)C(OC3OCC(C)(O)C(NC)C3O)C2O)O1 (stereo not given) [Gentamicin] + CN(C)c1cc(NC(=O)CNC(C)(C)C)c(O)c2c1C[C@H]1C[C@H]3[C@H](N(C)C)C(O)=C(C(N)=O)C(=O)[C@@]3(O)C(O)=C1C2=O [Tigecycline]
tgt: S. aureus Newman
quantitative_result: -0.0289
--
compound: CNC(C)C1CCC(N)C(OC2C(N)CC(N)C(OC3OCC(C)(O)C(NC)C3O)C2O)O1 (stereo not given) [Gentamicin] + C/C(=C\C(=O)OCCCCCCCCC(=O)O)C[C@@H]1OC[C@H](C[C@@H]2O[C@H]2[C@@H](C)[C@H](C)O)[C@@H](O)[C@H]1O [Pseudomonic acid]
tgt: S. aureus Newman
quantitative_result: 0.0245
--
compound: CNC(C)C1CCC(N)C(OC2C(N)CC(N)C(OC3OCC(C)(O)C(NC)C3O)C2O)O1 (stereo not given) [Gentamicin] + COc1c(N2C[C@@H]3CCCN[C@@H]3C2)c(F)cc2c(=O)c(C(=O)O)cn(C3CC3)c12 [Moxifloxacin]
tgt: S. aureus Newman
quantitative_result: 0.0666
--
compound: CNC(C)C1CCC(N)C(OC2C(N)CC(N)C(OC3OCC(C)(O)C(NC)C3O)C2O)O1 (stereo not given) [Gentamicin] + CO[C@H]1/C=C/O[C@@]2(C)Oc3c(C)c(O)c4c(O)c(c(/C=N/N5CCN(C)CC5)c(O)c4c3C2=O)NC(=O)/C(C)=C\C=C\[C@H](C)[C@H](O)[C@@H](C)[C@@H](O)[C@@H](C)[C@H](OC(C)=O)[C@@H]1C [Rifampicin]
tgt: S. aureus Newman
quantitative_result: 0.0286
--
compound: CNC(C)C1CCC(N)C(OC2C(N)CC(N)C(OC3OCC(C)(O)C(NC)C3O)C2O)O1 (stereo not given) [Gentamicin] + Cn1nnc(-c2ccc(-c3ccc(N4C[C@H](CO)OC4=O)cc3F)cn2)n1 [Tedizolid]
tgt: S. aureus Newman
quantitative_result: 0.0667
--
compound: CNC(C)C1CCC(N)C(OC2C(N)CC(N)C(OC3OCC(C)(O)C(NC)C3O)C2O)O1 (stereo not given) [Gentamicin] + O=C1CN(/N=C/c2ccc([N+](=O)[O-])o2)C(=O)N1 [Nitrofurantoin]
tgt: S. aureus Newman
quantitative_result: 0.0572
--
compound: CNC(C)C1CCC(N)C(OC2C(N)CC(N)C(OC3OCC(C)(O)C(NC)C3O)C2O)O1 (stereo not given) [Gentamicin] + C[C@@H](O)[C@H]1C(=O)N2C(C(=O)O)=C(SCCNC=N)C[C@H]12 [Imipenem]
tgt: S. aureus Newman
quantitative_result: -0.0478
